Listed here are compounds together with their documented solubility kinetic.
# setup.conditions: buffer; pH 7.4; 200.0 µM
measurement.type: solubility kinetic (µg/mL)

>>> observed_result("O=c1c2ccc(Cl)cc2nc2n1CC/C2=C\\c1cccc(O)c1")
2.9
>>> observed_result("COC(=O)C1CN(C(=O)c2ccc(OC(F)F)cc2)c2ccccc2O1 (centres undefined)")
43.1
>>> observed_result("CC(C)c1ccc(/C=C2\\SC(N3CCOCC3)=NC2=O)cc1")
29.9
>>> observed_result("O=C(COC(=O)/C=C/c1ccc([N+](=O)[O-])cc1)NC(=O)NC1CCCCC1")
3.7
>>> observed_result("CCC1CCCCN1S(=O)(=O)c1ccccc1 (centres undefined)")
31.5
>>> observed_result("CCCn1c(=S)[nH]c2ccc(C(F)(F)F)cc21")
20.7
>>> observed_result("Cc1ccc(CNC(=O)C2CC(=O)N(C3CCCCCC3)C2)cc1 (centres undefined)")
48.8
>>> observed_result("CC(C)Oc1ccc(C(=O)Nc2cccc3cccnc23)cc1")
1.1
>>> observed_result("O=C(CCCCl)NC(=S)Nc1ccc(N2CCOCC2)cc1")
11.4
>>> observed_result("COc1ccc(-c2cc(C3CC3)nc(N)c2C#N)cc1")
1.7
>>> observed_result("CCOc1ccc(N2C(=O)CSC2=NC#N)cc1")
38.3
>>> observed_result("O=C(CN1C(=O)c2ccccc2C1=O)NCc1ccc(F)cc1")
6.5
>>> observed_result("COC(=O)c1cc(-n2cccc2)ccc1N1CCOCC1")
35.6
>>> observed_result("CCOC(=O)C1=C(COC(=O)/C=C/c2ccco2)NC(=O)NC1C (centres undefined)")
23.1

----------
# setup.conditions: buffer; pH 7.4; 200.0 µM
Listed here are molecules together with their documented solubility kinetic.
measurement.type: solubility kinetic (µg/mL)

>>> observed_result("COc1ccc2nc(NC(=O)c3ccco3)sc2c1")
7.4
>>> observed_result("O=C(NCCc1ccccc1)c1ccccc1[N+](=O)[O-]")
33.6
>>> observed_result("O=C(COC(=O)c1cccc(Cl)c1)NC(=O)NCc1ccccc1")
3.6
>>> observed_result("O=C(CN1C(=O)CCS(=O)(=O)c2ccccc21)NCCc1ccccc1")
55.3
>>> observed_result("NC(=O)C1CCCN(CC(=O)N2CCN(c3ccccc3)CC2)C1 (configuration not stated)")
48.4
>>> observed_result("Cc1cc(NC(=O)C(=O)c2c(C)[nH]c3ccccc23)no1")
28.2
>>> observed_result("Cc1nc(-c2ccc(C#N)cc2)cs1")
13.5
>>> observed_result("COCCn1c(C)cc(C(=O)CN2c3cccc4cccc(c34)S2(=O)=O)c1C")
3.5

----------
Listed here are molecules together with their documented solubility kinetic.
# setup.conditions: buffer; pH 7.4; 200.0 µM
measurement.type: solubility kinetic (µg/mL)

>>> observed_result("O=C(NCCNc1ccc([N+](=O)[O-])cc1Cl)c1ccccc1F")
1.8
>>> observed_result("O=[N+]([O-])c1cccc2ccc(N3CCOCC3)nc12")
38.4
>>> observed_result("O=C(O)C(NS(=O)(=O)c1ccccc1)C(O)c1ccccc1 (stereo not given)")
33.9
>>> observed_result("CC(C)(C)NC(=O)c1ccccc1NC(=O)c1ccc2c(c1)OCO2")
5.3
>>> observed_result("CCN1CCN(c2ccc(N=Cc3ccccc3O)cc2)CC1")
40.7
>>> observed_result("CC(C)NC(=O)c1sc2c(c1C(=O)Nc1cccnc1)CCCC2")
6.4
>>> observed_result("Cc1cn(Cc2ccccc2Cn2cc(C)c(=O)[nH]c2=O)c(=O)[nH]c1=O")
52.3
>>> observed_result("Cc1ccc(NC(=O)CCC(=O)c2cccs2)c(O)c1")
24.2
>>> observed_result("Cc1ccc(S(C)(=O)=NC(=O)c2cc(C)on2)cc1 (stereo not given)")
41.5
>>> observed_result("COc1ccc(OC)c(COC(=O)c2cccc(S(=O)(=O)N3CCCCC3)c2)c1")
10.1
>>> observed_result("Cc1ccc(NC(=O)C(C)N2CCc3ccccc3C2)cc1 (stereo not given)")
31.8
>>> observed_result("CC(=O)C(C(c1ccccc1)c1c[nH]c2ccccc12)[N+](=O)[O-] (stereo not given)")
29.1
>>> observed_result("CCC(Oc1ccccc1)C(=O)NC1CCCCCC1 (stereo not given)")
28.3
>>> observed_result("COc1ccc(N=C(C)c2c(O)[nH]c(=O)[nH]c2=O)cc1")
5
>>> observed_result("OCCOCCOc1cccc2[nH]ccc12")
25.9
>>> observed_result("OCCNc1nc(-c2ccccc2)nc2c1oc1ccccc12")
0.3

----------
# setup.conditions: buffer; pH 7.4; 200.0 µM
measurement.type: solubility kinetic (µg/mL)

>>> observed_result("Cc1nc(NC(=O)c2cncc(Br)c2)ccc1Br")
2.1
>>> observed_result("COC(=O)c1cc(N2CCNCC2)nc2ccccc12.Cl")
39.9
>>> observed_result("Cc1ccc(S(=O)(=O)N(C)C)cc1NC(=O)Nc1ccccc1F")
1.7
>>> observed_result("N#Cc1ccc(OCC(=O)Nc2ccc(N3CCCC3)cc2)cc1")
5.9
>>> observed_result("OC(CNc1nc(C(F)(F)F)nc2ccccc12)c1ccccc1 (stereo not given)")
6.3
>>> observed_result("CCN(CC)c1ccc(C=Nc2cccc(S(=O)(=O)N3CCOCC3)c2)c(O)c1")
8.3
>>> observed_result("O=C1CCC/C1=C\\Nc1ccc(Cl)c([N+](=O)[O-])c1")
7.2
>>> observed_result("CSc1ncccc1C(=O)OCC(=O)NC(C)CCc1ccccc1 (stereo not given)")
29.1
>>> observed_result("CS(=O)(=O)N1CCc2cc(C(=O)Nc3ccccc3)ccc21")
2.3
>>> observed_result("O=C(CCCNC(=O)c1ccc(Cl)cc1)Nc1ccccc1F")
33.5
>>> observed_result("CN(C)c1nc(/C=C(\\C#N)C(N)=O)c(Cl)n1-c1ccc(F)cc1")
8.3
>>> observed_result("CCOc1ccccc1C(=O)Nc1cc(C)ccc1NC(=O)c1ccco1")
43.4
>>> observed_result("COc1cccc(NC(=O)c2cc3ccccc3cc2OC)c1")
2.8

----------
Listed here are compounds together with their documented solubility kinetic.
# setup.conditions: buffer; pH 7.4; 200.0 µM
measurement.type: solubility kinetic (µg/mL)

>>> observed_result("CCN1CCc2c(OCC(=O)N3CCC(C)CC3)cccc2C1=O")
46.2
>>> observed_result("Cc1nc2ccccc2c2c(N)c3ccccc3n12")
16.4
>>> observed_result("CN1CCN(C(=O)c2cc(=O)c3cc(Cl)cc(Cl)c3o2)CC1")
50.5
>>> observed_result("COc1cccc(CC(=O)Nc2ccccc2N2CCCC2)c1")
43.9
>>> observed_result("N#CCN1C(=O)C(=O)N(Cc2cccc(C(F)(F)F)c2)C1=O")
42.6
>>> observed_result("CC1CC(C)(C)NC(=S)N1CCCC(=O)Nc1ccc(Cl)cc1 (stereo not given)")
36.7
>>> observed_result("Cc1ccnc(NC(=O)c2ccc(Cl)s2)c1")
16.1
>>> observed_result("CCCc1c(C)nc(N2CCN(c3ccc(F)cc3)CC2)[nH]c1=O")
1.2
>>> observed_result("CCCNc1nc(Cl)nc(Nc2ccc(Cl)cc2)n1")
1.1
>>> observed_result("C=CCN(Cc1nc(-c2ccccc2)no1)C(=O)c1ccc2c(c1)OCO2")
21.1
>>> observed_result("CC(C)CC(=O)Nc1cccc(-c2nc3ccccc3[nH]2)c1")
32.2
>>> observed_result("CN(Cc1nc2ccccc2n1C)C(=O)c1ccco1")
39.9
>>> observed_result("CC(C)c1ccc(NC(=O)CCCN2C(=O)NC(C)(C)C2=O)cc1")
37.8
>>> observed_result("O=C(CSCc1ccc(F)cc1)NCc1ccc(F)cc1")
44
>>> observed_result("O=C(Oc1cccc(C(=S)N2CCCCC2)c1)c1ccccc1")
6

----------
Listed here are compounds together with their documented solubility kinetic.
# setup.conditions: buffer; pH 7.4; 200.0 µM
measurement.type: solubility kinetic

>>> observed_result("Cc1ccc2c(c1)N(CC(=O)NC1CCCC1)C(=O)CO2")
"> 43.3 µg/mL"
>>> observed_result("O=C(O)CCC(=O)NN1C(=O)c2ccccc2NC1c1ccc(F)cc1 (stereo unspecified)")
"> 53.6 µg/mL"
>>> observed_result("COc1cccc(CC(=O)Nc2ccc(S(=O)(=O)N3CCCCC3)cc2)c1")
"10.1 µg/mL"
>>> observed_result("CC1(C)Cn2c(nc(=O)c3c2NCN(CCc2ccccc2)C3)S1")
"> 51.4 µg/mL"
>>> observed_result("O=C(Nc1ccc(Br)cc1)N1CCCCCC1")
"7.6 µg/mL"
>>> observed_result("O=C(NCCC1CC1(Cl)Cl)Nc1ccccc1 (stereo unspecified)")
"> 41 µg/mL"

----------
# setup.conditions: buffer; pH 7.4; 200.0 µM
measurement.type: solubility kinetic (µg/mL)

>>> observed_result("Cl.O=C(CCN1CCOCC1)NC12CC3CC(CC(C3)C1)C2")
48.9
>>> observed_result("COc1ccc(CN2CCC(C)CC2)cc1OCc1ccccc1")
45.3
>>> observed_result("Cc1cc(C)nc(SCc2ccc(F)cc2)n1")
10
>>> observed_result("CSc1ccc(C2N=C(c3ccccc3)NO2)cc1 (centres undefined)")
11.9
>>> observed_result("N/C(=N\\OC(=O)c1ccc(Cl)cc1[N+](=O)[O-])c1cccnc1")
12.5
>>> observed_result("CN(C)/C=N/c1ncc(C(=O)c2ccc(-c3ccccc3)cc2)s1")
1.1
>>> observed_result("NS(=O)(=O)c1ccc(NC(=O)/C=C/c2cccc(Cl)c2)cc1")
1.4
>>> observed_result("Cc1c(/C=C2\\NC(=O)NC2=O)c2ccccc2n1C")
36.9
>>> observed_result("O=C(Nc1ccc(CN2CCOCC2)cc1)c1ccc(Cl)cc1")
9.2
>>> observed_result("COc1ccc2c(c1)[nH]c1c(N3CCSCC3)ncnc12")
11.5
>>> observed_result("CC(OC(=O)c1ccc(Cl)cc1)C(=O)NCC1CCCCC1 (centres undefined)")
13.8
>>> observed_result("Cc1ccc(NC(=O)c2cc(=O)[nH]c3ccccc23)cc1")
1.6
>>> observed_result("CC(=O)c1cccc(NC(=O)/C(=C/c2ccncc2)NC(=O)c2ccccc2)c1")
4.2
>>> observed_result("Cc1cccc(NC(=O)COC(=O)CCc2ccccc2)c1C")
5.9
>>> observed_result("CCOC(=O)c1ccc2c(c1)nc(-c1ccccn1)n2CC")
11.4
